Measured values drawn from patent US20200368361A1 for this set.

For each record, write down the corresponding t½.
Target: T1, human MSR1 extracellular domain expressed with a N-terminal nonahistidine tag (His9-hMSR1); R&D Systems, Cat … (human, UniProt P21757 77-451)
T1 construct: extracellular domain; Bought protein; also called His-hMSR1
T1 sequence: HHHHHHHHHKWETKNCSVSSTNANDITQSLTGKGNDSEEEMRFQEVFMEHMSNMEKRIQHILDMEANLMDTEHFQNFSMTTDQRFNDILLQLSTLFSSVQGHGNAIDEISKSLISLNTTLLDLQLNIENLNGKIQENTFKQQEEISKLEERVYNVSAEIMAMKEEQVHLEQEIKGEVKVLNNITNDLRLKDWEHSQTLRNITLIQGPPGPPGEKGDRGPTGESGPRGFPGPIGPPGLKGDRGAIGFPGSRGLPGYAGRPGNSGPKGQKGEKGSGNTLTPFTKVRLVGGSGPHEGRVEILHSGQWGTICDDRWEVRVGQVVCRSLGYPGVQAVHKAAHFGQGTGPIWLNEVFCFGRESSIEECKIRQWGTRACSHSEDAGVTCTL
Assay: SPR Biacore, 25C, mAb captured by anti-human Fc, MSR1 as analyte;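 further: Half-life of complex dissociation derived from kinetic rates, obtained by fitting Biacore 4000 sensorgrams to a 1:1 model including mass transport, run in HBS-ET buffer at pH 7.4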
Give bare numbers, in min.

These solved cases illustrate the format of a correct answer.
INSERT INTO measurements (binder, measurement_type, result) VALUES
  ('H1H27731P-N297Q (antibody, V domains shown, human IgG1 Fc with N297Q point mutation) VH: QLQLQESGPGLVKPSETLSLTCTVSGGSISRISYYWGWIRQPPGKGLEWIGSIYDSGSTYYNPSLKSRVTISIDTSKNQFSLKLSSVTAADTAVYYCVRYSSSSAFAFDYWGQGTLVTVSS VL: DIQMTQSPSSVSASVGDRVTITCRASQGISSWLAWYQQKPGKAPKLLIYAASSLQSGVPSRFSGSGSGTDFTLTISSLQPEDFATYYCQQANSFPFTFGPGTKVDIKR', 't½', 515),
  ('H1H27734P-N297Q (antibody, V domains shown, human IgG1 Fc with N297Q point mutation) VH: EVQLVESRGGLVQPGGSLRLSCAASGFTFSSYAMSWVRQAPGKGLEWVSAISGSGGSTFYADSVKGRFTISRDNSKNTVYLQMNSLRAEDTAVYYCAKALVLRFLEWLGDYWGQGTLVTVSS VL: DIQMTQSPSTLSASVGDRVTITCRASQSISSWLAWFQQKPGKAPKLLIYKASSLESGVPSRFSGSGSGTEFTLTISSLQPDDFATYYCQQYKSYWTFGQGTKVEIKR', 't½', 10),
  ('H1H27729P-N297Q (antibody, V domains shown, human IgG1 Fc with N297Q point mutation) VH: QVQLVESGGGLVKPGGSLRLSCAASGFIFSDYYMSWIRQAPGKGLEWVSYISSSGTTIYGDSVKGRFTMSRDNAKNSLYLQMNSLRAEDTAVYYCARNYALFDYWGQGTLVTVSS VL: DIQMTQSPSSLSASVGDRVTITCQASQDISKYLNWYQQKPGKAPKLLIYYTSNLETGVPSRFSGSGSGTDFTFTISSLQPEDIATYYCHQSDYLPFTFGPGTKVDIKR', 't½', 11);

Continue with the binder presented below.
Q: Reported t½, binder H1H27739P-N297Q (antibody, V domains shown, human IgG1 Fc with N297Q point mutation) VH: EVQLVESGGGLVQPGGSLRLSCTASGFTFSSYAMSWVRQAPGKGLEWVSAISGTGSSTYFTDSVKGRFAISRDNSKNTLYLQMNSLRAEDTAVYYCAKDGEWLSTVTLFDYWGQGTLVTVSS VL: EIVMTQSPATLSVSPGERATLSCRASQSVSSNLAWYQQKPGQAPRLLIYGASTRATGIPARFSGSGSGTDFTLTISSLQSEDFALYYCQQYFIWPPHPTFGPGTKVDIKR : ____
Ans: 11
